# target of assay: Cdc42 (Homo sapiens (Human))
# Sequence (P60953 whole entry, species assumed, the tested form may be a part): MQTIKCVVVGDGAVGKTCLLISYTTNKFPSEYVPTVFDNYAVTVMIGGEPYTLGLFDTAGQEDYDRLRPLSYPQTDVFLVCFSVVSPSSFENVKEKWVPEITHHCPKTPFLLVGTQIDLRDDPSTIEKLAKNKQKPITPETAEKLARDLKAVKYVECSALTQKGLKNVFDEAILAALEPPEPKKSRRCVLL
# assay name: Cdc42 GTP Binding Domain Inhibition Assay
# measurement parameters: read-out: Cdc42: % inh.
measured quantity: inhibition at 20 µM

Sample records with inhibition at 20 µM:
COc1cc(-c2sc3nc(-c4nccn4C)nc(N[C@H]4C[C@H](OC)C4)c3c2-c2ccccc2)ccn1	46 to 75%
COc1nccc(-c2sc3nc(-c4nccn4C)nc(N[C@H]4C[C@H](OC)C4)c3c2-c2ccccc2)c1F	46 to 75%
COc1cc(-c2sc3nc(-c4nccn4C)nc(N[C@@H]4CC[C@@H](OC)C4)c3c2-c2ccccc2)ccn1 (racemic)	46 to 75%
COc1cc(-c2sc3nc(-c4nccn4C)nc(N[C@@H]4CC[C@H](OC)C4)c3c2-c2ccccc2)ccn1 (racemic)	1 to 25%

Next:
Requested field: inhibition at 20 µM. Item: COc1cccc(-c2sc3nc(-c4nccn4C)nc(N[C@H]4C[C@H](OC)C4)c3c2-c2ccccc2)c1F
26 to 45%
